Taken from paper PMC9610617.

Each item that follows carries a reported MNTC, maximum nontoxic concentration.
System: human T-lymphocytic MT-4 cells
ASSAY_METHOD_TEXT: in vitro
RECORDED_CONDITIONS: MT-4 cells, 5 days, MTT; concentration with cell viability above 80% (CC20); mean ± S.E.M, n = 3

Using the record for Nc1nc(NC2CC2)c2ncn([C@H]3C=C[C@@H](CO)C3)c2n1 [ABC, abacavir, reference compound] , report its MNTC, maximum nontoxic concentration.
0.18 ± 0.03 µg/mL

Then what about the compound Cc1ccnc2c1NC(=O)c1cccnc1N2C1CC1 [NVP, Nevirapine, reference compound] ?
0.57 ± 0.0 µg/mL

// next record CC1=C2C[C@]3(O)[C@@H](C)CCC[C@@]3(C)C[C@@]2(O)OC1=O [Compound 2]
4.973 ± 0.25 µg/mL

Try the compound CO[C@@]12C[C@]3(C)CCC[C@H](C)[C@@]3(O)CC1=C(C)C(=O)O2 [Compound 1]
41.84 ± 0.11 µg/mL

Input C[C@H](Cn1cnc2c(N)ncnc21)OCP(=O)(O)O [TDF, tenofovir]
4.92 ± 0.71 µg/mL

Entry to check: CC1=C2C[C@]3(O)[C@@H](C)CCC[C@@]3(C)C[C@@H]2OC1=O [Compound 3]
64.93 ± 0.26 µg/mL
